System: Mus musculus
Assay: Compound was tested orally for its ability to induce gastric lesions in fasted mice (8-animals per group)
Format: functional
Conditions: Stomach, po
Could you please report measured ED50 for the items listed next?
Form entry: enter the amount, then its unit.

GET /value?item= O=C(c1ccccc1)c1cc(Cl)cc2c1OCC2C(=O)O (centres undefined) &field=ED50 returns 150 mg/kg

The measured ED50 associated with O=C(c1ccccc1)c1cc(Cl)cc2c1SCC2C(=O)O (centres undefined) reads 23 mg/kg

Value of measured ED50 for the entry O=C(c1ccccc1)c1cccc2c1SCC2C(=O)O (centres undefined) : 13 mg/kg

Reported ED50 ( Cc1cc(CC(=O)O)n(C)c1C(=O)c1ccc(Cl)cc1 [ZOMEPIRAC] ) = 8 mg/kg
